# Test system: Escherichia coli
# protocolDescription: Antibacterial activity against plasmid pK29 transconjugant Escherichia coli J53 by Etest
# Assay type: functional
# reported MIC; entries follow
Lab book: enter the figure in µg/mL, no units written.

Before answering, review these 3 worked examples.
compound	readoutValue
C[C@@H](O)[C@H]1C(=O)N2C(C(=O)O)=C(SCCNC=N)C[C@H]12 [IMIPENEM ANHYDROUS]	0.25
C[C@H]1[C@H](NC(=O)/C(=N\OC(C)(C)C(=O)O)c2csc(N)n2)C(=O)N1S(=O)(=O)O	2
CC(C)(O/N=C(\C(=O)N[C@@H]1C(=O)N2C(C(=O)[O-])=C(C[n+]3ccccc3)CS[C@H]12)c1csc(N)n1)C(=O)O	1.5

Now examine the next entry.
Challenge: Fill in the blank: the reported MIC of `O=C(N[C@H](CO)[C@H](O)c1ccc([N+](=O)[O-])cc1)C(Cl)Cl` is ____.
Response given: 96
